Target: CYP 3A4 (Homo sapiens, UniProt P08684)
Construct: NADPH regenerating system
Sequence (P08684 whole entry): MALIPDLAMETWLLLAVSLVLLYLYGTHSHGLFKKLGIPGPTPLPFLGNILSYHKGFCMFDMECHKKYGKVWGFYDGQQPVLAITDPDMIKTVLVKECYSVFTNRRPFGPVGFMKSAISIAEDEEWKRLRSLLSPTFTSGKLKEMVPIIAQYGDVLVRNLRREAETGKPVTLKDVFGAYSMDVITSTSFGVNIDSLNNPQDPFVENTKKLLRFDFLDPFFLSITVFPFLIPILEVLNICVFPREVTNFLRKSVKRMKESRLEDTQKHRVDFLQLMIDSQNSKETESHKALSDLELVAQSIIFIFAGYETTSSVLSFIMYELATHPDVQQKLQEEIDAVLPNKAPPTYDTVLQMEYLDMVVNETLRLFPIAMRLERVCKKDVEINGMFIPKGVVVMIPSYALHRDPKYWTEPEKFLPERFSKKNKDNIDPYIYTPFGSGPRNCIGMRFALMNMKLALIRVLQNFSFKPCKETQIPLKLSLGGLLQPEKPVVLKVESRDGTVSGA
Test: Kinetics of fluorogenic substrates with CYP 3A4
Type: biochemical
Conditions: CYP 3A4
quantityKind: type of kinetics

INSERT INTO assay_data (molecule, resultvalue) VALUES
  ('COc1ccc(COc2ccc3c(C(F)(F)F)cc(=O)oc3c2)cc1', 'Michaelis-'),
  ('O=c1ccc2nc3ccc(OCOCc4ccccc4)cc3oc-2c1', 'Michaelis-'),
  ('O=c1ccc2nc3ccc(OCc4ccccc4)cc3oc-2c1 [BR, Benzylresorufin, reference compound]', 'Michaelis-');

---

Target: CYP 3A4 (Homo sapiens, UniProt P08684)
Construct: NADPH regenerating system
Test: Kinetics of fluorogenic substrates with CYP 3A4
Assay type: biochemical
Settings: CYP 3A4, substrate 1.25 uM
Where v (1.25 uM), turnover rate at 1.25 μM equals or exceeds 0.1 min⁻¹, the correct label is class 1; where it does not, the label is class 0.

INSERT INTO results (compound, category) VALUES
  ('N#Cc1cc2ccc(OCOCc3ccccc3)cc2oc1=O [BOMCC, 7-Benzyloxymethyloxy-3-cyanocoumarin]', 'class 1'),
  ('CC1(C)C2=C(Cl)C(=O)C(Cl)=CC2=Nc2ccc(OCOCc3ccccc3)cc21 [BOMDDAO]', 'class 1'),
  ('O=c1cc(C(F)(F)F)c2ccc(OCOCc3ccccc3)cc2o1 [BOMFC]', 'class 1'),
  ('COCOc1ccc2nc3ccc(=O)cc-3oc2c1 [MOMR]', 'class 0'),
  ('CCCCCCCCOCOc1ccc2cc(C#N)c(=O)oc2c1 [OOMCC]', 'class 1');

Hello, I need to know if CCCCCCCCOCOc1ccc2nc3ccc(=O)cc-3oc2c1 [OOMR, Octyloxymethylresorufin] has measured v (1.25 uM), turnover rate at 1.25 μM not below 0.1 min⁻¹. Thanks! class 1

Ok, now CCOCOc1ccc2nc3ccc(=O)cc-3oc2c1 [EOMR] class 0

---

Biological target: UniProt:P10635
Sequence (P10635 whole entry): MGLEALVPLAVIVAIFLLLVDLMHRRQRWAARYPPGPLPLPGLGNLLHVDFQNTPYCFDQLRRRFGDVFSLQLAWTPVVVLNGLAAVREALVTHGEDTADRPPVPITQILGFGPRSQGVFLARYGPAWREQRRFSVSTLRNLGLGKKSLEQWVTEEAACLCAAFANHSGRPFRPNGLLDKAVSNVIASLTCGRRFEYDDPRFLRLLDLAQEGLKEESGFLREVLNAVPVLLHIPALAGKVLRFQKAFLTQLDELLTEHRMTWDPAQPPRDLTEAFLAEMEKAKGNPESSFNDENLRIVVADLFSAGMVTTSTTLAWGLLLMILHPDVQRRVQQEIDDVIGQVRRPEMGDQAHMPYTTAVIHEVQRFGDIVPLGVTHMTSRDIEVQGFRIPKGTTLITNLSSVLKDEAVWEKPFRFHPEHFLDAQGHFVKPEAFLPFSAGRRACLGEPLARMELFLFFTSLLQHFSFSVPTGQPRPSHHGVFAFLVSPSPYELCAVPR
Experiment: in vitro
Conditions: human, cyp 2d6, pH 8
pKi: −log10 of the molar value.
quantityKind: pKi

Please give the measured pKi for this compound: CC(C)NC[C@H](O)COc1cccc2ccccc12 (racemic) [Propanolol] < 4.52

---

Target: CYP 2C9 (Homo sapiens, UniProt P11712)
Sequence (P11712 whole entry): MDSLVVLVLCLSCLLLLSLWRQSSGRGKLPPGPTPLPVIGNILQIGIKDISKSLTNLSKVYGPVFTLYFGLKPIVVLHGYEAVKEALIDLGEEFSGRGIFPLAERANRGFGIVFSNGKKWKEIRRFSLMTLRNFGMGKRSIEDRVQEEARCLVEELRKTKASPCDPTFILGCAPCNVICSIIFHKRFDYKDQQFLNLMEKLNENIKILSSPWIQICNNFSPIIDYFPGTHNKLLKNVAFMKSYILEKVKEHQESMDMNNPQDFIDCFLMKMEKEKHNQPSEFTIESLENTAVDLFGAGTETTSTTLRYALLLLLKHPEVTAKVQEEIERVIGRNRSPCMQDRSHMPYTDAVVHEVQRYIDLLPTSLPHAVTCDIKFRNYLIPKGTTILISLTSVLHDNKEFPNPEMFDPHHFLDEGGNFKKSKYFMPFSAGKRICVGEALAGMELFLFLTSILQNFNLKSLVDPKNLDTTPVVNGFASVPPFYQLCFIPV
Experiment: Kinetics of fluorogenic substrates with CYP 2C9
Format: biochemical
Details: CYP 2C9
quantityKind: kcat (s⁻¹)
Report the figure in s⁻¹ without appending any unit label.

Worked examples, 6 molecules total:
INSERT INTO results (molecule, resultvalue) VALUES
  ('COc1ccc(COc2ccc3nc4ccc(=O)cc-4oc3c2)cc1', 0),
  ('N#Cc1cc2ccc(OCOCc3ccccc3)cc2oc1=O', 0.035),
  ('COc1ccc2c(C(F)(F)F)cc(=O)oc2c1 [MFC, 7-Methoxy-4-trifluoromethylcoumarin, reference compound]', 0.0067),
  ('COCOc1ccc2c(C(F)(F)F)cc(=O)oc2c1', 0.0017),
  ('COCOc1ccc2cc(C#N)c(=O)oc2c1', 0.0033),
  ('COc1ccc2cc(C#N)c(=O)oc2c1 [3CMC, 3-cyano-7-methoxycoumarin, reference compound]', 0.0067);

Let us examine a further case.
Please give the measured kcat for this molecule: CCCCCCCCOCOc1ccc2nc3ccc(=O)cc-3oc2c1 0.0067
